# protocolDescription: Solubility of fulvestrant in oil based formulations with and without alcohols (Table 4)
# Type: physicochemical
# experimentalSetup: Castor oil based oil formulation, complete vehicle, 25 °C, oil or lipid, Fulvestrant Solubility, Castor oil based; ethanol [96%] (10%), benzyl alcohol (10%), benzyl benzoate (15%), oil to volume

compound | solubility
C[C@]12CC[C@@H]3c4ccc(O)cc4C[C@@H](CCCCCCCCC[S+]([O-])CCCC(F)(F)C(F)(F)F)[C@H]3[C@@H]1CC[C@@H]2O (stereo partly shown) | 81.2 mg/mL

* * *

# protocolDescription: Solubility of fulvestrant in oil based formulations with and without alcohols (Table 4)
# Format: physicochemical
# experimentalSetup: 25 °C, oil or lipid, Fulvestrant Solubility, Vehicle minus alcohols, Sesame seed/Castor oil (1:1) based, alcohols removed; 25° C.

compound | solubility
C[C@]12CC[C@@H]3c4ccc(O)cc4C[C@@H](CCCCCCCCC[S+]([O-])CCCC(F)(F)C(F)(F)F)[C@H]3[C@@H]1CC[C@@H]2O (stereo partly shown) | 4400 µg/mL

* * *

# protocolDescription: Solubility of fulvestrant in oil based formulations with and without alcohols (Table 4)
# Type: physicochemical
# experimentalSetup: 25 °C, oil or lipid

compound | solubility
C[C@]12CC[C@@H]3c4ccc(O)cc4C[C@@H](CCCCCCCCC[S+]([O-])CCCC(F)(F)C(F)(F)F)[C@H]3[C@@H]1CC[C@@H]2O (stereo partly shown) [fulvestrant] | 70.1 mg/mL

* * *

# protocolDescription: Solubility of fulvestrant in oil based formulations with and without alcohols (Table 4)
# Format: physicochemical
# experimentalSetup: Miglyol 812-N based oil formulation, complete vehicle, 25 °C, oil or lipid, Fulvestrant Solubility, Miglyol 812-N based; ethanol [96%] (10%), benzyl alcohol (10%), benzyl benzoate (15%), oil to volume
outcomeMeasure: solubility

molecule | outcomeMeasure | reported
C[C@]12CC[C@@H]3c4ccc(O)cc4C[C@@H](CCCCCCCCC[S+]([O-])CCCC(F)(F)C(F)(F)F)[C@H]3[C@@H]1CC[C@@H]2O (stereo partly shown) | solubility | 86.8 mg/mL

* * *

# protocolDescription: Solubility of fulvestrant in oil based formulations with and without alcohols (Table 4)
# Format: physicochemical
# experimentalSetup: Arachis oil based oil formulation, complete vehicle, 25 °C, oil or lipid, Fulvestrant Solubility, Arachis oil based; ethanol [96%] (10%), benzyl alcohol (10%), benzyl benzoate (15%), oil to volume

compound | unitSpec | solubility
C[C@]12CC[C@@H]3c4ccc(O)cc4C[C@@H](CCCCCCCCC[S+]([O-])CCCC(F)(F)C(F)(F)F)[C@H]3[C@@H]1CC[C@@H]2O (stereo partly shown) | mg/mL | 40.2

* * *

# protocolDescription: Solubility of fulvestrant in oil based formulations with and without alcohols (Table 4)
# Assay type: physicochemical
# experimentalSetup: 25 °C, oil or lipid, Fulvestrant Solubility, Vehicle minus alcohols, Sesame seed oil based, alcohols removed
outcomeMeasure: solubility (µg/mL)

molecule | outcomeMeasure | reported
C[C@]12CC[C@@H]3c4ccc(O)cc4C[C@@H](CCCCCCCCC[S+]([O-])CCCC(F)(F)C(F)(F)F)[C@H]3[C@@H]1CC[C@@H]2O (stereo partly shown) | solubility | 700

* * *

# protocolDescription: Solubility of fulvestrant in different solvents at 25° C. (Table 2)
# Type: physicochemical
# experimentalSetup: solvent Water, 25° C.; read-out: SOLUBILITY

compound | solubility (µg/mL)
C[C@]12CC[C@@H]3c4ccc(O)cc4C[C@@H](CCCCCCCCC[S+]([O-])CCCC(F)(F)C(F)(F)F)[C@H]3[C@@H]1CC[C@@H]2O (stereo partly shown) [fulvestrant] | 1
